The reported numbers originate from the supplement of paper PMC10567573.

B1: LMNB1 (parent)
chain: LYKEELEQTYHAKLENARLSSEMN

# Variants of: B1
# protocol-summary: protein stability index of a GFP-peptide fusion (GPS, HEK-293T) (PSI 1-6); higher = more stable;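 also: lentivirally expressed fusions sorted by FACS into six bins by GFP to DsRed ratio, PSI derived from sequencing read proportions per bin multiplied by bin number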
# measurement-setup: c terminus: a fixed tail appended
parameter: protein stability index
Please give only the number in your answer, with no unit.

protein stability index in this record for `K3H` : 2.91

protein stability index in this record for `T9E` : 4.24

protein stability index in this record for `M23Y` : 1.6

protein stability index in this record for `N16F` : 1.89

protein stability index in this record for `Q8I` : 2.52

protein stability index in this record for `L6A` : 4.29

protein stability index in this record for `R18P` : 3.62

protein stability index in this record for `L19W` : 1.8

protein stability index in this record for `E4C` : 2.38

protein stability index in this record for `A12Q` : 4.25

protein stability index in this record for `L6G` : 3.81

protein stability index in this record for `K13R` : 2.55

protein stability index in this record for `M23T` : 2.52

protein stability index in this record for `L6R` : 4.38

protein stability index in this record for `Y10M` : 4.27

protein stability index in this record for `A12Y` : 3.52

protein stability index in this record for `A17Y` : 2.2

protein stability index in this record for `E15C` : 2.06

protein stability index in this record for `A17G` : 4.01

protein stability index in this record for `E7Y` : 2.38

protein stability index in this record for `T9Y` : 3.31

protein stability index in this record for `S20F` : 2.29

protein stability index in this record for `T9P` : 4.23

protein stability index in this record for `E4K` : 2.46

protein stability index in this record for `A17W` : 1.78

protein stability index in this record for `R18V` : 2.1

protein stability index in this record for `S20W` : 1.82

protein stability index in this record for `L6D` : 4.72

protein stability index in this record for `L6K` : 4.4

protein stability index in this record for `L14R` : 4.78

protein stability index in this record for `E15V` : 2.01
